target: chimeric DR-IE (human-mouse chimeric MHC class II molecule) (human; murine); assay: cell-based or functional assay
Experimental Endpoint: IC50, IL-2 secretion of T-Hyb 1 cells stimulated by 0401-IE transgenic APC; IgG (nM)

Binder: MS-GPC-8-10-57 (IgG4 form) (antibody, V domains shown) VH: QVELKESGPALVKPTQTLTLTCTFSGFSLSTSGVGVGWIRQPPGKALEWLALIDWDDDKYYSTSLKTRLTISKDTSKNQVVLTMTNMDPVDTATYYCARSPRYRGAFDYWGQGTLVTVSS VL: DIVLTQPPSVSGAPGQRVTISCSGSESNIGNNYVQWYQQLPGTAPKLLIYDNNQRPSGVPDRFSGSKSGTSASLAITGLQSEDEADYYCQSYDLIRHVFGGGTKLTVLG
Measured Value: 0.31

Binder: MS-GPC-8-6-2 (IgG form) (antibody, V domains shown) VH: QVELKESGPALVKPTQTLTLTCTFSGFSLSTSGVGVGWIRQPPGKALEWLALIDWDDDKYYSTSLKTRLTISKDTSKNQVVLTMTNMDPVDTATYYCARSPRYRGAFDYWGQGTLVTVSS VL: DIVLTQPPSVSGAPGQRVTISCSGSESNIGSNYVHWYQQLPGTAPKLLIYDNNQRPSGVPDRFSGSKSGTSASLAITGLQSEDEADYYCQSYDYDHYVFGGGTKLTVLG
Measured Value: 3.6

src = patent US20070086998A1
